- SUBJECT OF TEST: T1, P-cadherin-ECD1-3-Fc protein (human P-cadherin-Fc) (human, UniProt P22223 108-440)
- T1 construct: Construct was expressed with signal peptide and pro-peptide (PACE co-transfected to process the propeptide); not shown: hinge and CH2 and CH3 domains of human IgG1
- PROCEDURE SUMMARY: phage scFv ELISA, coated P-cadherin-ECD1-3-Fc
Would you kindly list Z Score for each of these binders?
Give bare numbers.

binder="anti-P-cadherin scFv 153 alanine-mutant H2.16-Ala (scFv, V domains shown, scFv on phage) VH: EVQLVQSGAEVKKPGASVKVSCKASGYTFTSYGISWVRQAPGQGLEWMGWISAYNGNTNYAQKLAGRVTMTTDTSTSTAYMELRSLRSDDTAVYYCATIDTANAFGIWGQGTMVTVSS VL: QSVLTQPPSVSAAPGQKVTISCSGSSSNIGNNYVSWYQQLPGTAPKLLIYDNNKRPSGIPDRFSGSKSGTSATLGITGLQTGDEADYYCGTWDSSLSGVVFGGGTKLTVL" reported_value=-0.7

Now turn to the next binder.
Problem: Given the binder anti-P-cadherin scFv 153 alanine-mutant H2.8-Ala (scFv, V domains shown, scFv on phage) VH: EVQLVQSGAEVKKPGASVKVSCKASGYTFTSYGISWVRQAPGQGLEWMGWISAYNGATNYAQKLQGRVTMTTDTSTSTAYMELRSLRSDDTAVYYCATIDTANAFGIWGQGTMVTVSS VL: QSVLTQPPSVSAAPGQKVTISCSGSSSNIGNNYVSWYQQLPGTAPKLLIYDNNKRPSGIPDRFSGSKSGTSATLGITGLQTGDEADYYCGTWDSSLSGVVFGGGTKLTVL , write its reported Z Score.
Result: 1.3
